Where do these numbers come from? They come from patent US20240316042A1.

- Test Method Notes: Phase 1 open-label study in pediatric subjects with severe atopic dermatitis: pharmacokinetics on Day 7
- Type: in vivo, human
- Experimental Setup: human, plasma, oral, AD Cohort 4: 2 to <6 years, High Dose, IR Solution; Day 7; read-out: t1/2, harmonic mean (pseudo standard deviation) (converted)
Endpoint: half-life (h)
Numbers only; they are read as h.

# half-life (molecule: CC[C@@H]1CN(C(=O)NCC(F)(F)F)C[C@@H]1c1cnc2cnc3[nH]ccc3n12 [upadacitinib] ) is 2.25

---

- Test Method Notes: Phase 1 open-label study in pediatric pcJIA patients: pharmacokinetics at steady state (Day 7)
- Type: in vivo, human
- Experimental Setup: human, plasma, oral, pcJIA Group 4: 2 to <6 years, low dose, BID solution; Day 7; read-out: Functional t1/2, harmonic mean (converted)
Endpoint: half-life (h)
Express your answer in h, writing the number without its unit.

half-life recorded for this compound, CC[C@@H]1CN(C(=O)NCC(F)(F)F)C[C@@H]1c1cnc2cnc3[nH]ccc3n12 [upadacitinib] , is 2.33
